Each entry below carries its recorded IC50.
- targetOfAssay: MNK2a (Homo sapiens, UniProt Q9HBH9)
- Sequence (Q9HBH9 whole entry): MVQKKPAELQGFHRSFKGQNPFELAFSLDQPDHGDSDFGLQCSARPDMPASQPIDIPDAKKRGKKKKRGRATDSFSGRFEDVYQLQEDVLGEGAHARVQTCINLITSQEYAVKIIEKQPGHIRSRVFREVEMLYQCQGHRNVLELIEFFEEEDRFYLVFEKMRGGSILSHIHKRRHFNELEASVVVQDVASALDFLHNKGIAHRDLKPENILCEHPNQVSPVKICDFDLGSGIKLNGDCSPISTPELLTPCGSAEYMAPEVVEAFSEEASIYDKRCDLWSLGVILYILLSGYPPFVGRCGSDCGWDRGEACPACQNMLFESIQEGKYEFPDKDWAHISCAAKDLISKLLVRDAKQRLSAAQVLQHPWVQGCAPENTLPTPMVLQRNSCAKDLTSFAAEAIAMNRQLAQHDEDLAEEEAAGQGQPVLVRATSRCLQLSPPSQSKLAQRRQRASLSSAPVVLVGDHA
- experiment: MNK2a in vitro kinase assay (assay 1), ADP-Glo
- conditionDetails: preactivated GST-MNK2a, 20 μM ATP, read-out: MNK2 IC50
propertyLabel: IC50 (nM)

[[record]]
molecule = "Cc1cc(N=S(C)(C)=O)cc2ncnc(Nc3ccc(C(N)=O)cc3OC3CCOCC3)c12 [Example 2.16]"
propertylabel = "IC50"
readoutvalue = 10

[[record]]
molecule = "Cc1cc(N=S(C)(C)=O)cc2ncnc(Nc3cccnc3OC3CCOCC3)c12 [Example 2.6]"
propertylabel = "IC50"
readoutvalue = 4

[[record]]
molecule = "CS(C)(=O)=Nc1cc(F)c2c(Nc3ccc(F)cc3O[C@@H]3CCCNC3)ncnc2c1 [Example 3.8]"
propertylabel = "IC50"
readoutvalue = 22

[[record]]
molecule = "Cc1cc(N=S(C)(C)=O)cc2ncnc(Nc3ccc(F)cc3O[C@@H]3CO[C@H]4[C@@H]3OC[C@@H]4C#N)c12 [Example 2.61]"
propertylabel = "IC50"
readoutvalue = 2

[[record]]
molecule = "CS(C)(=O)=Nc1cc(N2CCC2)c2c(Nc3ccc(F)cc3O[C@H]3CCOC3)ncnc2c1 [Example 1.19]"
propertylabel = "IC50"
readoutvalue = 106

[[record]]
molecule = "CO[C@H]1CC[C@H](Oc2cc(F)ccc2Nc2ncnc3cc(N=S4(=O)CCN(C(=O)OC(C)(C)C)CC4)cc(C)c23)CC1 [Example 2.14]"
propertylabel = "IC50"
readoutvalue = 9

[[record]]
molecule = "Cc1cc(N=S(C)(C)=O)cc2ncnc(Nc3ccc(F)cc3O[C@@H]3CCN(CCO)C3)c12 [Example 6.17]"
propertylabel = "IC50"
readoutvalue = 23

[[record]]
molecule = "Cc1cc(N=S2(=O)CCCC2)cc2ncnc(Nc3ccc(F)cc3O[C@@H]3CCN(CC(F)F)C3)c12 [Example 6.4]"
propertylabel = "IC50"
readoutvalue = 2

[[record]]
molecule = "CCS(C)(=O)=Nc1cc(C)c2c(Nc3ccc(F)cc3O[C@H]3CC[C@H](OC)CC3)ncnc2c1 (some centres unmarked) [Example 2.81]"
propertylabel = "IC50"
readoutvalue = 4

[[record]]
molecule = "CS(C)(=O)=Nc1cc(F)c2c(Nc3cccnc3O[C@H]3CC[C@H](N)CC3)ncnc2c1 [Example 3.5]"
propertylabel = "IC50"
readoutvalue = 5

[[record]]
molecule = "Cc1cc(N=S2(=O)CCC2)cc2ncnc(Nc3ccc(F)cc3O[C@H]3CCOC3)c12 [Example 2.98]"
propertylabel = "IC50"
readoutvalue = 1

[[record]]
molecule = "Cc1cc(N=S(C)(C)=O)cc2ncnc(Nc3cccnc3O[C@H]3CC[C@H](O)CC3)c12 [Example 2.31]"
propertylabel = "IC50"
readoutvalue = 2

[[record]]
molecule = "CS(C)(=O)=Nc1cc(F)c2c(Nc3ccc(F)cc3O[C@@H]3CCCN(Cc4ncon4)C3)ncnc2c1 [Example 6.12]"
propertylabel = "IC50"
readoutvalue = 12

[[record]]
molecule = "Cc1cc(N=S(C)(C)=O)cc2ncnc(Nc3ccc(C#N)nc3OC3CCOCC3)c12 [Example 1.38]"
propertylabel = "IC50"
readoutvalue = 12

[[record]]
molecule = "CS(C)(=O)=Nc1cc(Cl)c2c(Nc3cccnc3O[C@H]3CC[C@H](O)CC3)ncnc2c1 [Example 1.16]"
propertylabel = "IC50"
readoutvalue = 1

[[record]]
molecule = "O=S1(=Nc2cc(Cl)c3c(Nc4ccc(F)cc4O[C@H]4CCOC4)ncnc3c2)CCC1 [Example 1.26]"
propertylabel = "IC50"
readoutvalue = 2

[[record]]
molecule = "Cc1cc(N=S2(=O)CCCC2)cc2ncnc(Nc3cccnc3OC3COCCOC3)c12 [Example 2.88]"
propertylabel = "IC50"
readoutvalue = 5

[[record]]
molecule = "CS(C)(=O)=Nc1cc(OC(F)F)c2c(Nc3ccc(F)cc3O[C@H]3CCOC3)ncnc2c1 [Example 1.23]"
propertylabel = "IC50"
readoutvalue = 4

[[record]]
molecule = "CO[C@H]1CC[C@H](Oc2cc(F)ccc2Nc2ncnc3cc(N=S4(=O)CCN(C(=O)N(C)C)CC4)cc(C)c23)CC1 [Example 7.5]"
propertylabel = "IC50"
readoutvalue = 7

[[record]]
molecule = "Cc1cc(N=S(C)(C)=O)cc2ncnc(Nc3cccnc3O[C@@H]3CO[C@H]4[C@@H]3OC[C@H]4O)c12 [Example 1.9]"
propertylabel = "IC50"
readoutvalue = 6

[[record]]
molecule = "CS(C)(=O)=Nc1cc(OC2CC2)c2c(Nc3ccc(F)cc3O[C@H]3CCOC3)ncnc2c1 [Example 1.25]"
propertylabel = "IC50"
readoutvalue = 48

[[record]]
molecule = "Cc1cc(N=S(C)(C)=O)cc2ncnc(Nc3ccc(C(N)=O)cc3OC3CCCC3)c12 [Example 2.24]"
propertylabel = "IC50"
readoutvalue = 4

[[record]]
molecule = "Cc1cc(N=S(C)(C)=O)cc2ncnc(Nc3ccc(F)cc3OC3CC(O)C3(C)C)c12 (centres unmarked) [Example 1.35]"
propertylabel = "IC50"
readoutvalue = 5

[[record]]
molecule = "COc1cc(N=S2(=O)CCCC2)cc2ncnc(Nc3ccc(F)cc3O[C@@H]3CO[C@H]4[C@@H]3OC[C@H]4OC)c12 [Example 2.9]"
propertylabel = "IC50"
readoutvalue = 1

[[record]]
molecule = "CS(C)(=O)=Nc1cc(F)c2c(Nc3ccc(F)cc3O[C@@H]3CCCN(CC(F)(F)F)C3)ncnc2c1 [Example 6.13]"
propertylabel = "IC50"
readoutvalue = 4

[[record]]
molecule = "Cc1cc(N=S(C)(=O)c2cccnc2)cc2ncnc(Nc3ccc(F)cc3O[C@H]3CCOC3)c12 (some centres unmarked) [Example 2.102]"
propertylabel = "IC50"
readoutvalue = 5

[[record]]
molecule = "CO[C@@H]1CO[C@H]2[C@@H]1OC[C@H]2Oc1cc(F)ccc1Nc1ncnc2cc(N=S3(=O)CCCC3)cc(C)c12 [Example 2.43]"
propertylabel = "IC50"
readoutvalue = 1

[[record]]
molecule = "Cc1cc(N=S(C)(=O)c2ccncc2)cc2ncnc(Nc3ccc(F)cc3O[C@H]3CCOC3)c12 (some centres unmarked) [Example 2.100]"
propertylabel = "IC50"
readoutvalue = 6

[[record]]
molecule = "CS(C)(=O)=Nc1cc(Cl)c2c(Nc3ccc(F)cc3O[C@@H]3CO[C@H]4[C@@H]3OC[C@H]4O)ncnc2c1 [Example 1.6]"
propertylabel = "IC50"
readoutvalue = 1

